Hey, just so you know, these numbers are from the Deep4Chem optical property database.

- Assay remarks: solvent given as SMILES
- Experimental parameters: in Cc1ccccc1
Experimental readout: emission maximum (nm)
// units = nm; emit number, no label

Examples from the recorded data:
# Smiles data, Display unit, emission maximum
rows = [
    ("CC(C)(C)c1ccc2c(c1)c1cc(C(C)(C)C)ccc1n2-c1ccc(-n2c3ccc(C(C)(C)C)cc3c3cc(C(C)(C)C)ccc32)c(-c2nccnc2C#N)c1", "nm", 503),
    ("CN(C)c1ccc(-c2c(/C=C3/C=Cc4ccccc4N3Cc3ccccc3)c(=O)c2=O)cc1", "nm", 435),
    ("O=[N+]([O-])c1ccc(C2=Nc3sc(-c4ccccc4)n[n+]3[B-](F)(F)O2)cc1", "nm", 409),
]

--- query ---
If you can, please state the reported emission maximum value of COc1cccc(-c2c3ccccc3c3n2[B-](F)(F)[N+]2=Cc4c5ccccc5c(-c5cccc(OC)c5)n4[B-](F)(F)[N+]2=C3)c1 .
608
